target: human MMP-8 (Homo sapiens, UniProt P22894); construct: purchased R&D Systems, Minneapolis; experiment: Determination of MMP inhibitory potency, MMP-8; assay type: biochemical
Sequence (P22894 101-467): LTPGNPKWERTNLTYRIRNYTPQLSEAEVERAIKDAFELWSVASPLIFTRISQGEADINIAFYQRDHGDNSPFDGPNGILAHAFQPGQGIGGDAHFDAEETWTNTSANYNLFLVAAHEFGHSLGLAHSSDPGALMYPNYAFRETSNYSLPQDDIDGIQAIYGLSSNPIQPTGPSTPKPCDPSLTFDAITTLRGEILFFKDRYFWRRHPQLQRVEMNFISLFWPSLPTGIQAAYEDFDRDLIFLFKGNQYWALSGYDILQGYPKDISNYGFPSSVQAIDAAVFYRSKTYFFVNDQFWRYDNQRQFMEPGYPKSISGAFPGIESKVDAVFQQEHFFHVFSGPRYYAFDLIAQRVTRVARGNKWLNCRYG
pIC50: −log10 of the molar value.
property name: pIC50

Query string: Answer briefly: pIC50 recorded on human MMP-8 (Homo sapiens, UniProt P22894) for N[C@H]1CCCC[C@H]1NC(=O)P(=O)(O)O (relative stereo) [YK-162, reference compound]
Result string: < 4.00

----------
biological target: human MMP-12 (Homo sapiens, UniProt P39900); construct: purchased R&D Systems, Minneapolis; assay: Determination of MMP inhibitory potency, MMP-12; format: biochemical; conditions: read-out: IC50 (μM) on MMP-12
Sequence (P39900 106-470): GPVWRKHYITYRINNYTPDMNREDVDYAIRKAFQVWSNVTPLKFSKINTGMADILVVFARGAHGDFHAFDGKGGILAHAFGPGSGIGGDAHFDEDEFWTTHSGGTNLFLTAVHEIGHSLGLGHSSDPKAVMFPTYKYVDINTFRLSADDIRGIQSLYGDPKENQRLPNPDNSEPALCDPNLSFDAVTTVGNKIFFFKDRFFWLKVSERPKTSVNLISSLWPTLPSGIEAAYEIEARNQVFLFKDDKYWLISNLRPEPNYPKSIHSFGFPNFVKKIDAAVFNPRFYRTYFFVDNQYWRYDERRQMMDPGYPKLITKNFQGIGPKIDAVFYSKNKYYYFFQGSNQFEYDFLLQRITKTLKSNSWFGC
// IC50 lookup, one value per entry

Answered cases to consult:
INSERT INTO results (compound, assay_system, property_name, measured_value) VALUES
  ('O=C(NCCCCCCNS(=O)(=O)c1ccc(Oc2ccccc2)cc1)P(=O)(O)O', 'human MMP-12 (Homo sapiens, UniProt P39900)', 'IC50', '> 100 µM'),
  ('O=C(NCCCCCNS(=O)(=O)c1ccc(Oc2ccccc2)cc1)P(=O)(O)O', 'human MMP-12 (Homo sapiens, UniProt P39900)', 'IC50', '80 µM'),
  ('O=C(NCCCCCCCCNS(=O)(=O)c1ccc(Oc2ccccc2)cc1)P(=O)(O)O', 'human MMP-12 (Homo sapiens, UniProt P39900)', 'IC50', '> 100 µM'),
  ('O=C(NCCCCNS(=O)(=O)c1ccc(Oc2ccccc2)cc1)P(=O)(O)O', 'human MMP-12 (Homo sapiens, UniProt P39900)', 'IC50', '> 100 µM');

Query string: // fetch IC50 given entry NC(CNC(=O)P(=O)(O)O)CNS(=O)(=O)c1ccc(Oc2ccccc2)cc1 (racemic)
Result string: 15 µM

Query string: Retrieve IC50 measured for `O=C(NCCCNS(=O)(=O)c1ccc(Oc2ccccc2)cc1)P(=O)(O)O` and print it.
Result string: > 100 µM

Query string: # return recorded IC50 for input `N[C@H](CNC(=O)P(=O)(O)O)CNS(=O)(=O)c1ccc(Oc2ccccc2)cc1`
Result string: 12 µM

Query string: Check the records and state IC50 for `N[C@@H](CNC(=O)P(=O)(O)O)CNS(=O)(=O)c1ccc(Oc2ccccc2)cc1`
Result string: > 100 µM

Query string: Determine from records and report IC50 for `O=C(NCCCCCCCNS(=O)(=O)c1ccc(Oc2ccccc2)cc1)P(=O)(O)O`
Result string: > 100 µM

Query string: Read the entry `O=C(NCCNS(=O)(=O)c1ccc(Oc2ccccc2)cc1)P(=O)(O)O` and write its reported IC50.
Result string: 60 µM
